Molecular target: UniProt:P05177
Sequence (P05177 whole entry): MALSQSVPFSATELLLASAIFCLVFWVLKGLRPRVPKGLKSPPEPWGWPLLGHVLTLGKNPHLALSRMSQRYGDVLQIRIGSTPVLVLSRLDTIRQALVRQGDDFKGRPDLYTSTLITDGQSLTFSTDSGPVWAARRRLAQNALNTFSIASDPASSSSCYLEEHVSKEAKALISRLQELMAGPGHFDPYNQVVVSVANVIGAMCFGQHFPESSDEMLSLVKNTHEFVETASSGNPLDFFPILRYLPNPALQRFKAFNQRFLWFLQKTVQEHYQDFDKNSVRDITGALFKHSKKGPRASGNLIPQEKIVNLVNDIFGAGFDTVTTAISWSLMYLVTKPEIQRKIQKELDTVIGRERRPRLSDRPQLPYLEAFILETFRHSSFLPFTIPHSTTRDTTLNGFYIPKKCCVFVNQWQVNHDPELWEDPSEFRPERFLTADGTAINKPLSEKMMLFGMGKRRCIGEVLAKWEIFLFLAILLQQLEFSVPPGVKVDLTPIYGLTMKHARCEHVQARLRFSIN
Collected IC50 values appear next to each entry.
Quick note: give the figure in nM, leave out the unit.

Worked examples, 3 compounds total:
>>> reading("c1ccc(Cn2ccnc2)cc1")
200
>>> reading("CC(=O)Nc1ccc2c(c1)Cc1ccccc1-2 [2-ACETYLAMINOFLUORENE]")
16
>>> reading("O=c1[nH]c2ccccc2c2ccccc12")
16

Kindly note the recorded IC50 for CCOc1cc(N)c(Cl)cc1C(=O)NCC1CN(Cc2ccc(F)cc2)CCO1 (centres undefined) [MOSAPRIDE] , which is 400

Kindly note the recorded IC50 for "CCN(CC)C(=S)SSC(=S)N(CC)CC" , which is 4000

----------
target: C-X-C chemokine receptor type 2 (Homo sapiens, UniProt P25025); format: cell membranes, CHO-K1, Membrane; conditions: cho-k1; note: in other assays of this panel Not Active means under 50% inhibition at 10 µM
Sequence (P25025 whole entry): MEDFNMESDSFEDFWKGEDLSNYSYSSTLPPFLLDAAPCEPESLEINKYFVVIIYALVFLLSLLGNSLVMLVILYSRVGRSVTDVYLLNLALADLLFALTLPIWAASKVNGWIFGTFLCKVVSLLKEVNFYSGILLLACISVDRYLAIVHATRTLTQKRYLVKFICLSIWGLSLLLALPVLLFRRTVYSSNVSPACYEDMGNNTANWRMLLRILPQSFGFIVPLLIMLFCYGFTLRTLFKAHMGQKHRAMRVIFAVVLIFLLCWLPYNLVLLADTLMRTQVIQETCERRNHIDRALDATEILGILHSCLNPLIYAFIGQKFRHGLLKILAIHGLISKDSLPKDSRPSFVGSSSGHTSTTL
Parameter Measured: IC50

>>> reading("Nc1nc(N)c2nc(-c3ccccc3)c(N)nc2n1")
"Not Active"
>>> reading("COc1cc(/C=C/C(=O)O)ccc1O [FERULATE]")
"Not Active"
>>> reading("OC[C@H]1O[C@@H]2O[C@H]3[C@H](O)[C@@H](O)[C@@H](O[C@H]4[C@H](O)[C@@H](O)[C@@H](O[C@H]5[C@H](O)[C@@H](O)[C@@H](O[C@H]6[C@H](O)[C@@H](O)[C@@H](O[C@H]7[C@H](O)[C@@H](O)[C@@H](O[C@H]1[C@H](O)[C@H]2O)O[C@@H]7CO)O[C@@H]6CO)O[C@@H]5CO)O[C@@H]4CO)O[C@@H]3CO")
"Not Active"
>>> reading("CC(N)Cc1c[nH]c2ccc(OCc3cccs3)cc12 (centres undefined)")
"Not Active"

----------
target: Substance-P receptor (Homo sapiens, UniProt P25103); format: cell membranes, Membrane; conditions: cho; note: in other assays of this panel Not Active means under 50% inhibition at 10 µM
Sequence (P25103 whole entry): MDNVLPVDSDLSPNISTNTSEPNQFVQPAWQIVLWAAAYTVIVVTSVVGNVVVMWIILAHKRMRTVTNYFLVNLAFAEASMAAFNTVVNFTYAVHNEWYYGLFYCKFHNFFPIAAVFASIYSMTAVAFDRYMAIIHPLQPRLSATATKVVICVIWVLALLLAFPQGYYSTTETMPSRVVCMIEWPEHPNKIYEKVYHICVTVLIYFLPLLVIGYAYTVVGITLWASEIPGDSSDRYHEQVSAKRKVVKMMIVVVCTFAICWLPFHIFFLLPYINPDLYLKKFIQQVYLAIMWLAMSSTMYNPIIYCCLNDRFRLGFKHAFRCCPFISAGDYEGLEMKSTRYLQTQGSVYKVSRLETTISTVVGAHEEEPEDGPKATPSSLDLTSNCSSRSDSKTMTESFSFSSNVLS
Parameter Measured: IC50

Worked examples, 7 compounds total:
>>> reading("C1CCN2C[C@@H]3C[C@@H](CN4CCCC[C@@H]34)[C@H]2C1")
"Not Active"
>>> reading("CC(=O)O[C@]1(C(C)=O)CC[C@H]2[C@@H]3C[C@H](C)C4=CC(=O)CC[C@]4(C)[C@H]3CC[C@@]21C [MEDROXYPROGESTERONE ACETATE]")
"Not Active"
>>> reading("COc1cc(/C=C/C(=O)O)ccc1O [FERULATE]")
"Not Active"
>>> reading("CS(=O)(=O)c1ccc(C2=C(c3ccccc3)C(=O)OC2)cc1")
"Not Active"
>>> reading("CCN1CCCC1CNC(=O)c1cc(S(N)(=O)=O)ccc1OC (stereo not drawn) [SULPIRIDE]")
"Not Active"
>>> reading("CN(C)CCC=C1c2ccccc2COc2ccccc21 [DOXEPIN]")
"Not Active"
>>> reading("C=C(Cl)Cl")
"Not Active"

Proceeding to the next compound to report its IC50.
Kindly note the recorded IC50 for "C[C@@H]1[C@H](O)[C@@H](C)/C=C/C=C/C=C/C=C/C=C/C=C/C=C/[C@H](O[C@@H]2O[C@H](C)[C@@H](O)[C@H](N)[C@@H]2O)C[C@@H]2O[C@](O)(C[C@@H](O)C[C@@H](O)[C@H](O)CC[C@@H](O)C[C@@H](O)CC(=O)O[C@H]1C)C[C@H](O)[C@H]2C(=O)O" , which is Not Active

----------
target: Beta-2 adrenergic receptor (Homo sapiens, UniProt P07550); assay: DRUGMATRIX: Adrenergic beta2 radioligand binding (ligand: [3H] CGP-12177); type: cell membranes, CHO, Membrane; conditions: cho; Not Active = under 50% inhibition at 10 µM
Parameter Measured: IC50

>>> reading("CHROMIC CHLORIDE")
"Not Active"
>>> reading("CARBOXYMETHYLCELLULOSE")
"Not Active"
>>> reading("POVIDONE")
"Not Active"
>>> reading("COPPER(II) OXIDE")
"Not Active"

Proceeding to the next substance to report its IC50.
Kindly note the recorded IC50 for LEAD(IV) ACETATE , which is Not Active

----------
assay: DRUGMATRIX: ATPase, Na+/K+ enzyme inhibition (substrate: ATP); assay type: tissue-based, Sus scrofa, Heart; conditions: Not Active = under 50% inhibition at 10 µM
Parameter Measured: Ki

>>> reading("OC[C@H]1O[C@@H]2O[C@H]3[C@H](O)[C@@H](O)[C@@H](O[C@H]4[C@H](O)[C@@H](O)[C@@H](O[C@H]5[C@H](O)[C@@H](O)[C@@H](O[C@H]6[C@H](O)[C@@H](O)[C@@H](O[C@H]7[C@H](O)[C@@H](O)[C@@H](O[C@H]1[C@H](O)[C@H]2O)O[C@@H]7CO)O[C@@H]6CO)O[C@@H]5CO)O[C@@H]4CO)O[C@@H]3CO")
"Not Active"
>>> reading("C1CCN2C[C@@H]3C[C@@H](CN4CCCC[C@@H]34)[C@H]2C1")
"Not Active"

----------
Molecular target: UniProtKB P04150
Sequence (P04150 whole entry): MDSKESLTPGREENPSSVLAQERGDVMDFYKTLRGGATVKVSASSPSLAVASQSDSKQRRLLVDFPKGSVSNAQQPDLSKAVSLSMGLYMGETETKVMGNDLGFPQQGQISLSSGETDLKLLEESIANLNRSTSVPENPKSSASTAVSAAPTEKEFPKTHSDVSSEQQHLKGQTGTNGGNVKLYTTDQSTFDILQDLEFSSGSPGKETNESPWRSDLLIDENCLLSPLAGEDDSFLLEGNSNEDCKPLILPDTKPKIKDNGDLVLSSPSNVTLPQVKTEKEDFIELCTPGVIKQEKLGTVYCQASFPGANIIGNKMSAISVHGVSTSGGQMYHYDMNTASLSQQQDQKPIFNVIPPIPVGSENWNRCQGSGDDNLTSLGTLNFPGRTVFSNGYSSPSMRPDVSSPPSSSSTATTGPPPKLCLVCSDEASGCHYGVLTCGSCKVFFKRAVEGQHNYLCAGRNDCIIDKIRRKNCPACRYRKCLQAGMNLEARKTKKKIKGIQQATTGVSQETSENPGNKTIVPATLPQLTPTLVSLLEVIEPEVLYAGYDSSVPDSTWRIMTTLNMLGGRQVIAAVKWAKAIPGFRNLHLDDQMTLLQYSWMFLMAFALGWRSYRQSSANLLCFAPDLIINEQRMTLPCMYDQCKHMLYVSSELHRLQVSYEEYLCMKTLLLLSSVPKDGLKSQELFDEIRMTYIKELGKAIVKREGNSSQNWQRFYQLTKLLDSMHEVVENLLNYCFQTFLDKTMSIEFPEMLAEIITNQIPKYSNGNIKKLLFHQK
Experiment: biochemical
Parameter Measured: Ki (nM)
Quick note: give the figure in nM, leave out the unit.

Kindly note the recorded Ki for CC(=O)O[C@]1(C(C)=O)CC[C@H]2[C@@H]3C[C@H](C)C4=CC(=O)CC[C@]4(C)[C@H]3CC[C@@]21C [MEDROXYPROGESTERONE ACETATE] , which is 8.64

----------
test: DRUGMATRIX: Leukotriene, BLT (LTB4) radioligand binding (ligand: [3H]LTB4); assay type: cell membranes, Membrane; conditions: u-937; Not Active = under 50% inhibition at 10 µM
Parameter Measured: Ki

>>> reading("OC[C@H]1O[C@@H]2O[C@H]3[C@H](O)[C@@H](O)[C@@H](O[C@H]4[C@H](O)[C@@H](O)[C@@H](O[C@H]5[C@H](O)[C@@H](O)[C@@H](O[C@H]6[C@H](O)[C@@H](O)[C@@H](O[C@H]7[C@H](O)[C@@H](O)[C@@H](O[C@H]8[C@H](O)[C@@H](O)[C@@H](O[C@H]1[C@H](O)[C@H]2O)O[C@@H]8CO)O[C@@H]7CO)O[C@@H]6CO)O[C@@H]5CO)O[C@@H]4CO)O[C@@H]3CO")
"Not Active"
>>> reading("CC[C@H]1OC(=O)[C@H](C)[C@@H](O[C@H]2C[C@@](C)(OC)[C@@H](O)[C@H](C)O2)[C@H](C)[C@@H](O[C@@H]2O[C@H](C)C[C@H](N(C)C)[C@H]2O)[C@](C)(O)C[C@@H](C)C(=O)[C@H](C)[C@@H](O)[C@]1(C)O")
"Not Active"
>>> reading("CCN1C[C@]2(COC)[C@H](O)C[C@H](OC)[C@@]34[C@@H]5C[C@@]6(O)[C@H](OC(=O)c7ccccc7)[C@@H]5[C@@](OC(C)=O)([C@@H]([C@H](OC)[C@H]23)[C@@H]14)[C@@H](O)[C@@H]6OC")
"Not Active"
